Tested on: NCI/ADR-RES ovarian
methodDescription: NCI-60 one-dose screen, 48 h (100 = growth as untreated, 0 = no growth, -100 = all killed)
studyConditions: 10 µM unless noted
The panel holds about 83,000 compounds, 20% with a hit somewhere; the sample as a whole holds those more often.
assayEndpoint: growth (%)
Give bare numbers, in %.

>>> endpointvalue("FC(F)(F)c1cc(Nc2ccc3cc(OCCCN4CCOCC4)ccc3n2)ccc1Cl")
44.9
>>> endpointvalue("CC1SC(c2ccc(OCc3ccccc3)cc2)N(NC(=O)C(O)(c2ccccc2)c2ccccc2)C1=O (stereo not drawn)")
63.5
>>> endpointvalue("COc1ccc(-c2cc(-c3cc(OC)ccc3OC)nc(SCC(=O)c3ccccc3)c2C#N)cc1")
93.1
>>> endpointvalue("CC1O[C@@H](OC2[C@H](OC(=O)/C=C/c3ccc(O)c(O)c3)C(COC3O[C@H](C)C(O)C(O)[C@@H]3O)O[C@@H](OCCc3ccc(O)c(O)c3)[C@H]2O)[C@@H](O)C(O)[C@H]1O (stereo partly drawn)")
116
>>> endpointvalue("C=C(C)[C@@H]1CC[C@]2(C(=O)NC3CCCCC3)CC[C@]3(C)[C@H](CC[C@@H]4[C@@]5(C)CCCNC(C)(C)[C@@H]5CC[C@]43C)[C@@H]12")
57.7

Go through the list and state growth for each entry.
1. COC(=O)[C@]12CC[C@@H](C)[C@H](C)[C@@H]1C1=CC[C@@H]3[C@@]4(C)C(C=O)=C[C@@](C)(COC(=O)/C=C/c5ccccc5)[C@@H]4[C@H](O)C[C@@]3(C)[C@]1(C)CC2
2. C[n+]1cccc(CC(=O)NO)c1
3. COc1ccc(/C=c2\nc3n(-c4ccccc4)c4nc5c6c(sc5c(=N)n4n-3c2=O)CCCC6)cc1
4. C=C1C(=O)O[C@H]2[C@H]1CC/C(COC(=O)C(=O)c1c[nH]c3ccc(OC)cc13)=C\CC[C@@]1(C)O[C@@H]21
5. Cn1c(I)c(C#C[Si](C)(C)C)c(=O)n(C(=O)c2ccccc2)c1=O

Result ::
17.9
105
83.1
7.22
88.1

----------
Test system: OVCAR-3 ovarian
methodDescription: NCI-60 one-dose screen, 48 h (100 = growth as untreated, 0 = no growth, -100 = all killed)
studyConditions: 10 µM unless noted
Experimental: Growth inhibition of the OVCAR-3 human tumor cell line is measured as a screen for anti-cancer activity. Cells are grown in 96 well plates and exposed to the test compound for 48 hours. Compounds are tested at a single concentration, which is 10^-5 M for most compounds. The reported endpoint is percent growth (GI% or GIPRCNT), where numbers from 0 - 100% represent growth inhibition, and numbers from -100% - 0 represent cell death. For example, a value of 40 represents 60% growth inhibition. […]
The panel holds about 83,000 compounds, 20% with a hit somewhere; the sample as a whole holds those more often.
Exercise: for every item that follows, state its recorded growth.
Answers are plain numbers, in %.

>>> endpointvalue("Cc1ccc(-n2nc3c(c(C#N)c2=O)CC(c2ccccc2Cl)C([N+](=O)[O-])=C3O)cc1 (stereo unspecified)")
103

Go through the list and state growth for each entry.
1. COc1ccc(-c2cc(-c3cc(OC)ccc3OC)nc(SCC(=O)c3ccccc3)c2C#N)cc1
2. N#Cc1nc2c(S(=O)(=O)c3ccc(Cl)cc3)c(N)n(Nc3cccc(Cl)c3)c2nc1C#N

Result ::
1. 108
2. 59.4

Go through the list and state growth for each entry.
1. COc1ccc(NC(=O)CSc2nc(C)c(C(C)=O)n2-c2ccc([N+](=O)[O-])cc2)cc1
2. CCN(CC)CCN1C(=O)c2c(c(C)c3c(oc4cc(O)ccc43)c2C)C1=O
3. Fc1cnc(NC2CC2)nc1-c1cnc2ccc(N3CCOCC3)cn12
4. COc1cc(/C=N/Nc2ncc(-c3cc4cc5c(cc4o3)OCO5)s2)cc(OC)c1OC
5. O=C1c2cccc(NCCN=Cc3cc([N+](=O)[O-])ccc3O)c2C(=O)c2c(NCCN=Cc3cc([N+](=O)[O-])ccc3O)cccc21
6. NS(=O)(=O)c1cnccc1Sc1ccncc1S(N)(=O)=O
7. N#Cc1c(-c2cccc(Cl)c2)cc(-c2cccc(F)c2)[nH]c1=O

Result ::
1. 119
2. -88
3. 4.44
4. 67.2
5. 85.1
6. 103
7. 92.7

----------
Test system: RPMI-8226 leukemia
methodDescription: NCI-60 one-dose screen, 48 h
studyConditions: 10 µM unless noted
Protocol: Growth inhibition of the RPMI-8226 human tumor cell line is measured as a screen for anti-cancer activity. Cells are grown in 96 well plates and exposed to the test compound for 48 hours. Compounds are tested at a single concentration, which is 10^-5 M for most compounds. The reported endpoint is percent growth (GI% or GIPRCNT), where numbers from 0 - 100% represent growth inhibition, and numbers from -100% - 0 represent cell death. For example, a value of 40 represents 60% growth inhibition. […]
The panel holds about 83,000 compounds, 20% with a hit somewhere; the sample as a whole holds those more often. Activity calls are given as the source filed them. The calls were made as follows: active = growth percent below 10; inactive = the rest.
Returns: one label drawn from active, inactive

>>> classification("N=C1C(c2nc(-c3ccc(Br)cc3)cs2)=C(O)CN1CC1CCCO1 (stereo not given)")
"inactive"

Query :: For `FC(F)(F)c1cc(Nc2ccc3cc(OCCCN4CCOCC4)ccc3n2)ccc1Cl` , what call appears in the results of this test?
Result :: active

Query :: For `Cc1cc(NCc2cc(Nc3ccnc4cc(Cl)ccc34)ccc2F)nc(Cl)n1` , what call appears in the results of this test?
Result :: inactive

Query :: For `COc1cc(N=Nc2ccc(N)cc2)c(OC)cc1N=Nc1ccccc1.[Cl][Zn][Cl]` , what call appears in the results of this test?
Result :: inactive

----------
Exercise: for every item that follows, state its recorded growth.
System: IGROV1 ovarian
methodDescription: NCI-60 one-dose screen, 48 h (100 = growth as untreated, 0 = no growth, -100 = all killed)
studyConditions: 10 µM unless noted
This is part of a sample that, as a whole, favours compounds with a hit. Of some 83,000 tested, about 20% had one in any assay. The source made the active and inactive calls. Rule for the calls: active = growth percent below 10; inactive = the rest.

Field: example entries. Status: answers known.
>>> endpointvalue("Cc1c(O)cc(-c2cnc(N/N=C\\c3ccc(Cl)cc3)s2)c(O)c1C")
"83.5% (inactive)"
>>> endpointvalue("CS(=O)c1cccc(-c2ccc3nc(N)n(-c4ccc(C(F)(F)F)cc4)c(=O)c3c2)c1 (stereo unspecified)")
"102% (inactive)"
>>> endpointvalue("COc1ccc(CN2C(=O)C(Cl)=C(Nc3cccc(C(F)(F)F)c3)C2=O)cc1")
"36.1% (inactive)"
>>> endpointvalue("CCCCn1c(=O)c2c(nc(NCCc3ccc(O)c(O)c3)n2CCC)n(CCCC)c1=O")
"82.5% (inactive)"
>>> endpointvalue("Cc1cc(NCc2cc(Nc3ccnc4cc(Cl)ccc34)ccc2F)nc(N2CCN(c3ccccc3)CC2)n1")
"41.6% (inactive)"
>>> endpointvalue("COC(=O)c1ccc(C2Nc3ccc(S(=O)(=O)Nc4ccc(C)c(C)c4)cc3C3OCCC23)cc1 (stereo unspecified)")
"84.4% (inactive)"
>>> endpointvalue("CC(=O)n1c(-c2ccc(Cl)cc2)nc2c(c1=O)C(c1ccc(Cl)cc1)c1sc3c(Cl)cccc3c1O2 (stereo unspecified)")
"13.2% (inactive)"
>>> endpointvalue("COc1ccc(-c2nc(SCC(=O)Nc3nc(-c4ccccc4)cs3)[nH]c(=O)c2C#N)cc1")
"88.3% (inactive)"
>>> endpointvalue("CC1=NOC(=O)/C1=C\\c1ccc(O)cc1")
"104% (inactive)"
>>> endpointvalue("O=C(O)CN1C(=O)CCC1=O")
"118% (inactive)"

Go through the list and state growth for each entry.
1. O=C(/C=C/c1ccco1)c1ccc(Nc2nc(Nc3ccc(F)cc3)nc(Nc3ccc(Cl)cc3)n2)cc1
2. Cc1ccc2c(c1)Sc1c(ccc3ccccc13)N2
3. CC(=O)N1N=C(c2ccc(Nc3nc(Nc4ccc(F)cc4)nc(Nc4ccc(F)cc4)n3)cc2)CC1c1cccc([N+](=O)[O-])c1 (stereo unspecified)
4. N[C@@H](CCCCNCC(=O)O)C(=O)O

Result ::
61.7% (inactive)
42.3% (inactive)
76.9% (inactive)
108% (inactive)

Go through the list and state growth for each entry.
1. Cc1ccc(Cl)cc1NC(=O)c1cc2ccccc2cc1O
2. O=S(=O)(NCCCNc1cc(-c2c(-c3cccc(O)c3)nc3sccn23)ccn1)c1cccc(Cl)c1

Result ::
["-5.94% (active)", "40.5% (inactive)"]

----------
Tested on: COLO 205 colon
methodDescription: NCI-60 one-dose screen, 48 h
studyConditions: 10 µM unless noted
The panel holds about 83,000 compounds, 20% with a hit somewhere; the sample as a whole holds those more often. Calls of active or inactive are those of the source. How the source made its calls: active means growth percent below 10; inactive means the rest.
Returns: one label drawn from class 1 for active, class 0 for inactive

>>> classification("O=C(/C=C/c1c(Cl)nc2sccn12)c1ccc(F)c(F)c1")
"class 0"
>>> classification("O=C(CC(SCc1ccccc1)c1ccccc1)c1ccccc1 (centres undefined)")
"class 0"
>>> classification("Cc1cc[c-]cc1.Fc1c[c-]c(-c2ccccn2)c(F)c1.[Pt+2].c1ccc(P(C[PH+](c2ccccc2)c2ccccc2)c2ccccc2)cc1")
"class 1"

Query :: For `Cc1c(O)cc(-c2cnc(N/N=C\c3ccc(Cl)cc3)s2)c(O)c1C` , what call appears in the results of this test?
Result :: class 0
